The measurements presented in this section are drawn from PubChem BioAssay AID256.

Reported T/C values for the following molecules.
system: CD2F1 mice, L1210 leukemia ip, survival T/C; experiment: NCI In Vivo Anticancer Drug Screen. Data for tumor model L1210 Leukemia (intraperitoneal) in CD2F1 (CDF1) mice; settings: endpoint: mean survival time; dose: 400.0 mg/kg/injection; schedule: Q01DX009 (ip); vehicle: Klucel (hydroxypropylcellulose) (HPC); higher = longer survival
Inconclusive results and toxic doses are left out.
ASSAY READOUT: T/C

>>> df
                                   molecule   value_measured
0             c1ccc(N/N=C2/CSCc3ccccc32)cc1  93 % of control
1  O=C(N/N=C\c1cc(Cl)ccc1[N+](=O)[O-])c1ccccc1  94 % of control
2  O=C(CC(=O)c1cccc([N+](=O)[O-])c1)Nc1cccc([N+](=O)[O-])c1  94 % of control
3  CC(=O)OC1(C)CC(C)(C)N=N1 (stereo not given)  97 % of control
4  O=C1c2ccccc2CC12OC2c1ccccc1 (stereo not given)  98 % of control

###

test system: CD2F1 mice, L1210 leukemia ip, survival T/C; assay: NCI In Vivo Anticancer Drug Screen. Data for tumor model L1210 Leukemia (intraperitoneal) in CD2F1 (CDF1) mice; conditions: endpoint: mean survival time; dose: 50.0 mg/kg/injection; schedule: Q01DX001 (ip); vehicle: saline; higher = longer survival
Toxic doses and inconclusive results are not listed.
Reported T/C values for the following molecules.
ASSAY READOUT: T/C

In [3]: df
Out[3]:
                                   molecule  assay_readout    value_measured
0  O=C1[O][Sb]23[O]C(=O)C([O]2)C(O)C(O)C2[O][Sb]4([O]C(=O)C([O]4)C(O)C(O)C1[O]3)[O]C2=O (stereo unspecified)            T/C   97 % of control
1  CC1(C)SC2C(NC(=O)Cc3ccccc3)C(=O)N2C1C(=O)O (stereo unspecified)            T/C  100 % of control
2                CN1C(=O)C(C)(C)C(=O)C1(C)C            T/C  104 % of control
3                   Cc1cc(=O)n2cc(Br)ccc2n1            T/C   96 % of control
4  Oc1ccccc1/C=N/c1nc2ccc(Cl)cc2s1.Oc1ccccc1/C=N/c1nc2ccc(Cl)cc2s1.[Zn]            T/C   91 % of control
5  COCCOC(C)C(=O)C(O)S(=O)(=O)O (stereo unspecified)            T/C   98 % of control

###

Reported T/C values for the following compounds.
tested on: CD2F1 mice, L1210 leukemia ip, survival T/C; assay: NCI In Vivo Anticancer Drug Screen. Data for tumor model L1210 Leukemia (intraperitoneal) in CD2F1 (CDF1) mice; conditions: endpoint: mean survival time; dose: 6.25 mg/kg/injection; schedule: Q04DX003 (ip); vehicle: saline with Tween-80; higher = longer survival
Inconclusive results and toxic doses are left out.
ASSAY READOUT: T/C

>>> df
                                   compound    value_measured
0  Cc1cc(O)c2c(c1O)C(=O)C13C(=C2O)C(=O)C2C(O)C1C1C(O)C3C(=O)C3=C(O)c4c(O)cc(C)c(O)c4C(=O)C321 (stereo not given)  102 % of control
1  CCCC[NH-].CCCC[NH-].O=C(O)CC(=O)O.[Pt+2]   96 % of control
2  O=[N+]([O-])CC1CCCCC1O (stereo not given)  102 % of control
3              CCOC(C[Se][Se]CC(OCC)OCC)OCC   95 % of control
4         CN(C)CCNC1=C(Cl)C(=O)c2ccccc2C1=O   97 % of control
